- target.desc: JAK1 (Homo sapiens)
- Construct: purchased Invitrogen
- Sequence (P23458 whole entry): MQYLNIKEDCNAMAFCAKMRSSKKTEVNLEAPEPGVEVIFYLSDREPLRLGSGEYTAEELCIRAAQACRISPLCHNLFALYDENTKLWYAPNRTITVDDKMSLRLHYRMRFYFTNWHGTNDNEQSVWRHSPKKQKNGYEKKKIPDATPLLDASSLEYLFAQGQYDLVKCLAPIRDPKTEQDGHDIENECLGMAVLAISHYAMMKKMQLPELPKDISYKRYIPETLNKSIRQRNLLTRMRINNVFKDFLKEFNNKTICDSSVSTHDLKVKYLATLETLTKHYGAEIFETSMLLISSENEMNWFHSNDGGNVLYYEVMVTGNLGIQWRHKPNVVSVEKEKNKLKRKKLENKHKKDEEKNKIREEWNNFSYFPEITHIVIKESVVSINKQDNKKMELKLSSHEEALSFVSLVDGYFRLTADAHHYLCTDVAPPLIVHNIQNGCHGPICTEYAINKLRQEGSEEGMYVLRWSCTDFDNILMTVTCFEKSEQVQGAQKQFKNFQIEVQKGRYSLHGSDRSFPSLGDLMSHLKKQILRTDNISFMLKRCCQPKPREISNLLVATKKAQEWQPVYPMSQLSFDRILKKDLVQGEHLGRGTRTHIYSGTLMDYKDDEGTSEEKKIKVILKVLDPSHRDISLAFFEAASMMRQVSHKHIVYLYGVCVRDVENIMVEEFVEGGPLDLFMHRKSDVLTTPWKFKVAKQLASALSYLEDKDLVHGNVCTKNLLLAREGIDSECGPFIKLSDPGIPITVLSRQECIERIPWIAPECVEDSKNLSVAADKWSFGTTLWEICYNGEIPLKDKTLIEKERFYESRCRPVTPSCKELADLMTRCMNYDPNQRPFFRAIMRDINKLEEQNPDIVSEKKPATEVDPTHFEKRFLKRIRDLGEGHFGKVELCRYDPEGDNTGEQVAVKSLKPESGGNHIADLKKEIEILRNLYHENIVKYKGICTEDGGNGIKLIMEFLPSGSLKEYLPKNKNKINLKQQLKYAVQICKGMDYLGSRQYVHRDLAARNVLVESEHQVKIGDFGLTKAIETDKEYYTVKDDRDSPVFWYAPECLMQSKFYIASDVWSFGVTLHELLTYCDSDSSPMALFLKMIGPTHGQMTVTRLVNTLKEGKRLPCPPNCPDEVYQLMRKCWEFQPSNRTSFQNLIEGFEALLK
- measurement.description: JAK1 enzyme inhibition test (LANCE method)
- Type: biochemical
- recorded.conditions: 1 μM test compound; read-out: JAK1 enzyme inhibitory activity (%, 1 μM)
recorded.endpoint: inhibition at 1 µM (%)

Cn1nc(-c2cn(C(C3CC3)C3CC3)c(=O)c3c(N)n[nH]c23)cc1C1=CCCCC1; 101
COC[C@H]1CCCN1c1cc(-c2cn(C(C3CC3)C3CC3)c(=O)c3c(N)n[nH]c23)nn1C; 99
COC1(c2cc(-c3cn(-c4c(F)cccc4F)c(=O)c4c(N)n[nH]c34)nn2C)CCS(=O)(=O)CC1; 97
Cn1nc(-c2cn(-c3c(F)cccc3F)c(=O)c3c(N)n[nH]c23)cc1N1CCC(C#N)CC1; 98
C[C@@H](C1CC1)n1cc(-c2cc(N3CCOCC3)n(C)n2)c2[nH]nc(N)c2c1=O; 99
COC1(c2cc(-c3cn(C(C4CC4)C4CC4)c(=O)c4c(N)n[nH]c34)nn2C)CN(S(=O)(=O)C(C)C)C1; 96
C[C@@H](C1CC1)n1cc(-c2cc(N3CCC(O)(C(F)(F)F)CC3)n(C)n2)c2[nH]nc(N)c2c1=O; 100

###

- target.desc: TYK2 (Homo sapiens)
- Construct: purchased Invitrogen
- Sequence (P29597 whole entry): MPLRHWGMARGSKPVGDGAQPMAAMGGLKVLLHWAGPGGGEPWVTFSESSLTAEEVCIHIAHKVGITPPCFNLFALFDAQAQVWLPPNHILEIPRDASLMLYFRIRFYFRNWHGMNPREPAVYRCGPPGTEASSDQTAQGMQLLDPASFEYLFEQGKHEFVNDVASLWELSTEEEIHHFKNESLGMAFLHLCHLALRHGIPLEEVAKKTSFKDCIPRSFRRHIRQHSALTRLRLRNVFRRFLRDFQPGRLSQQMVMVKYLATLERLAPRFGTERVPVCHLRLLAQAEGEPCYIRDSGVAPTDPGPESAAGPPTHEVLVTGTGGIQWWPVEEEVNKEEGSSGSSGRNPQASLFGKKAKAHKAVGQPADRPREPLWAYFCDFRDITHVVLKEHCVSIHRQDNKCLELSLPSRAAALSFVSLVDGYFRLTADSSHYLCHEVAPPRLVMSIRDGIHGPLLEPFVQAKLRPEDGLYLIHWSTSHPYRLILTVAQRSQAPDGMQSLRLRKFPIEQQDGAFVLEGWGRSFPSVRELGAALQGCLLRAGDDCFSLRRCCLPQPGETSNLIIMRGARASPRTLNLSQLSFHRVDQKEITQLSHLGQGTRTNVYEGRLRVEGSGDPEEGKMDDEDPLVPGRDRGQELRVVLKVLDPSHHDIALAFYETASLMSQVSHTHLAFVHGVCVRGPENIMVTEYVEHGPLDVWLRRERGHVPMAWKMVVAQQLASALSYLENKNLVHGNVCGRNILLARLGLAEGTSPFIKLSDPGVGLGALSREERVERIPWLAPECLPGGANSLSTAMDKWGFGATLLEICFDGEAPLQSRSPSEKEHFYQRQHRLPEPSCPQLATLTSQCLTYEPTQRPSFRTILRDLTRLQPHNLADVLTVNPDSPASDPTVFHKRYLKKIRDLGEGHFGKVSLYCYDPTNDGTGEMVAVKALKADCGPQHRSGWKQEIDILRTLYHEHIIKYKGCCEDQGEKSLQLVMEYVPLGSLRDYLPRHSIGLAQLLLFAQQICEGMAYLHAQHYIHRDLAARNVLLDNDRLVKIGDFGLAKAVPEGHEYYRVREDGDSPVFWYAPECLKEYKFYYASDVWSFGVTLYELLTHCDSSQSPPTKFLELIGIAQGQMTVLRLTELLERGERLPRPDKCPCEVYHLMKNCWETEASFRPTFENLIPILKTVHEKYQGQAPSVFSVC
- measurement.description: TYK2 enzyme inhibition test (LANCE method)
- Format: biochemical
- recorded.conditions: 1 μM test compound; read-out: TYK2 enzyme inhibitory activity (%, 1 μM)
recorded.endpoint: inhibition at 1 µM (%)

CN1CCN(c2cc(-c3cn(-c4c(F)cccc4C#N)c(=O)c4c(N)n[nH]c34)nn2C)CC1; 100
Cn1nc(-c2cn(C(C3CC3)C(F)(F)F)c(=O)c3c(N)n[nH]c23)cc1N1CCOCC1 (stereo not drawn); 100
COC[C@H]1CCCN1c1cc(-c2cn(C(C3CC3)C3CC3)c(=O)c3c(N)n[nH]c23)nn1C; 100
Cn1nc(-c2cn(C(C3CC3)C3CC3)c(=O)c3c(N)n[nH]c23)cc1N1CC[C@@H](O)C1; 98
COC(C)(C)c1cc(-c2cn(-c3c(F)cccc3C#N)c(=O)c3c(N)n[nH]c23)nn1C; 100
COC1(c2cc(-c3cn(-c4c(F)cccc4F)c(=O)c4c(N)n[nH]c34)nn2C)CN(S(C)(=O)=O)C1; 100
CC(C)[C@H](C)n1cc(-c2cc(N3CCCC3=O)n(C)n2)c2[nH]nc(N)c2c1=O; 99
CC(C)[C@@H](C)n1cc(-c2cc(C(C)(C)O)n(C)n2)c2[nH]nc(N)c2c1=O; 96
CC(C)[C@H](C)n1cc(-c2cc(N3CCCCC3)n(C)n2)c2[nH]nc(N)c2c1=O; 99
CC(C)[C@H](C)n1cc(-c2cc(CN3CCS(=O)(=O)CC3)n(C)n2)c2[nH]nc(N)c2c1=O; 99
Cn1nc(-c2cn(-c3c(F)cccc3F)c(=O)c3c(N)n[nH]c23)cc1N1CCC(C#N)CC1; 100
CC(C)[C@H](C)n1cc(-c2cc(C(=O)N3CCS(=O)(=O)CC3)n(C)n2)c2[nH]nc(N)c2c1=O; 100
CO[C@@H]1CCN(c2cc(-c3cn([C@@H](C)C(C)C)c(=O)c4c(N)n[nH]c34)nn2C)C1; 100
Cc1cc(-c2cn(C(C3CC3)C3CC3)c(=O)c3c(N)n[nH]c23)nn1C; 98
CC(C)[C@H](C)n1cc(-c2cc(C(C)(C)C(=O)N(C)C)n(C)n2)c2[nH]nc(N)c2c1=O; 98
